Answer each item with its documented Tmax.
Assay: Tmax in immunocompetent SKH1 mouse plasma at 50 mg/kg, sc
Format: ADME, organism-based
Parameters: dose 50 mg/kg, route subcutaneous
One number for each entry, in min.

[[record]]
compound = "Nc1nc(/C(=N/O)C(=O)N[C@@H]2C(=O)N3C(C(=O)O)=C(/C=C4\\CCN([C@@H]5CCNC5)C4=O)CS[C@H]23)ns1 [CEFTOBIPROLE]"
result_unit = "min"
observed_measurement = 7.5

[[record]]
compound = "CN[C@H](CC(C)C)C(=O)N[C@H]1C(=O)N[C@@H](CC(N)=O)C(=O)N[C@H]2C(=O)N[C@H]3C(=O)N[C@H](C(=O)N[C@H](C(=O)O)c4cc(O)cc(O)c4-c4cc3ccc4O)[C@H](O)c3ccc(c(Cl)c3)Oc3cc2cc(c3O[C@@H]2O[C@H](CO)[C@@H](O)[C@H](O)[C@H]2O[C@H]2C[C@](C)(N)[C@H](O)[C@H](C)O2)Oc2ccc(cc2Cl)[C@H]1O [VANCOMYCIN]"
result_unit = "min"
observed_measurement = 10


// below: Tmax requested for another compound
Req: Return the recorded Tmax value; entry: Cc1nnc(SCC2=C(C(=O)O)N3C(=O)[C@@H](NC(=O)Cn4cnnn4)[C@H]3SC2)s1 [CEFAZOLIN]
Resp: 7.5

====

Experiment: Tmax in immunocompetent SKH1 mouse skin at 50 mg/kg, sc
Type: ADME, organism-based, Zone of skin
Design: dose 50 mg/kg, route subcutaneous
ATTRIBUTE_MEASURED: Tmax (min)
One number for each entry, in min.

Req: Give the value of Tmax reported for the following: Nc1nc(/C(=N/O)C(=O)N[C@@H]2C(=O)N3C(C(=O)O)=C(/C=C4\CCN([C@@H]5CCNC5)C4=O)CS[C@H]23)ns1
Resp: 15

====

Hi there, I'd appreciate the recorded fraction unbound for every entry that follows.
Test: Protein binding in mouse plasma
Assay type: ADME, cell-free
Details: read-out: PPB (converted)
One number for each entry.

Below are worked cases with known answers.
[[record]]
compound_structure_string = "CC(=O)NC[C@H]1CN(c2ccc(N3CCOCC3)c(F)c2)C(=O)O1"
observed_measurement = 0.68

[[record]]
compound_structure_string = "CN[C@H](CC(C)C)C(=O)N[C@H]1C(=O)N[C@@H](CC(N)=O)C(=O)N[C@H]2C(=O)N[C@H]3C(=O)N[C@H](C(=O)N[C@H](C(=O)O)c4cc(O)cc(O)c4-c4cc3ccc4O)[C@H](O)c3ccc(c(Cl)c3)Oc3cc2cc(c3O[C@@H]2O[C@H](CO)[C@@H](O)[C@H](O)[C@H]2O[C@H]2C[C@](C)(N)[C@H](O)[C@H](C)O2)Oc2ccc(cc2Cl)[C@H]1O"
observed_measurement = 0.75

[[record]]
compound_structure_string = "Cc1nnc(SCC2=C(C(=O)O)N3C(=O)[C@@H](NC(=O)Cn4cnnn4)[C@H]3SC2)s1"
observed_measurement = 0.19


From here, focus on the item given below.
Req: # return recorded fraction unbound for entry Nc1nc(/C(=N/O)C(=O)N[C@@H]2C(=O)N3C(C(=O)O)=C(/C=C4\CCN([C@@H]5CCNC5)C4=O)CS[C@H]23)ns1
Resp: 0.84

====

Experiment: Half life in immunocompromized SKH1 mouse skin at 50 mg/kg, sc
Format: ADME, organism-based, Zone of skin
Set-up: dose 50 mg/kg, route subcutaneous
ATTRIBUTE_MEASURED: half-life

Req: Assign half-life to the following record: Nc1nc(/C(=N/O)C(=O)N[C@@H]2C(=O)N3C(C(=O)O)=C(/C=C4\CCN([C@@H]5CCNC5)C4=O)CS[C@H]23)ns1
Resp: 30 min
